Recorded values, source patent US4238495A.

assay: in vivo; conditions: rat, iv, LD50 (i.v.)
ATTRIBUTE MEASURED: LD50 (µmol/kg)
# value in µmol/kg; strip the unit string

Request: Query (molecule): N#Cc1ccc(OCC(O)COc2cccc3oc(C(=O)O)cc(=O)c23)cc1.[Na] (stereo not shown) ; field requested: LD50
Response: 2380

###

experiment: intravenous lethality (LD50) in test animals; settings: rat, in vivo
ATTRIBUTE MEASURED: LD50

Request: Query (compound): O=c1cc(-c2nnn[nH]2)oc2cccc(OCC(O)COc3ccc(Cl)cc3)c12 (stereo not shown) [Augstein Cl] ; field requested: LD50
Response: > 1.8 µmol/kg
